Test system: 565232-114-T-J1-PDC complex spheroid viability
experiment: Anticancer human tumor 565232-114-T-J1-PDC patient-derived bladder carcinoma cell line growth inhibition [CLK]
measurement parameters: second compound 3.16 µM; first compound 0.1 µM; hits give low values
assay endpoint: viability, T/C (%)
Supply the numeric figure in %, leaving out any unit text.

Answered examples (2):
compound="C=C(F)C(=O)N1CCN(c2nc(OCC3CCCN3C)nc3c2CCN(c2cccc4cccc(Cl)c24)C3)CC1CC#N (stereo not drawn) + CNC(=O)c1ccc(Nc2nc(OC3CCCC3)c3c(-c4ccc5nc(C)oc5c4)c[nH]c3n2)c(OC)c1" reported=19.2
compound="COc1cccc2c1C(=O)c1c(O)c3c(c(O)c1C2=O)CC(O)(C(=O)CO)CC3OC1CC(N)C(O)C(C)O1 (stereo not drawn) + CNC(=O)c1ccc(Nc2nc(OC3CCCC3)c3c(-c4ccc5nc(C)oc5c4)c[nH]c3n2)c(OC)c1" reported=9.58

Here's the next entry for you.
# input Tell me measured viability, T/C for C#Cc1c(F)ccc2cc(O)cc(-c3ncc4c(N5CC6CCC(C5)N6)nc(OCC56CCCN5CC(F)C6)nc4c3F)c12 (stereo not drawn) + CNC(=O)c1ccc(Nc2nc(OC3CCCC3)c3c(-c4ccc5nc(C)oc5c4)c[nH]c3n2)c(OC)c1 please.
# output 16.2

----------
System: 565232-114-T-J1-PDC complex spheroid viability
experiment: Anticancer human tumor 565232-114-T-J1-PDC cell line growth inhibition [CLK];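 note: spheroids exposed to compounds for 7 days before readout; 100% = DMSO vehicle wells with luminescence normalized to vehicle control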
measurement parameters: second compound 0.1 µM; first compound 0.0316 µM; hits give low values
In this section we review reported viability, T/C values for a set of compounds.
Supply the numeric figure in %, leaving out any unit text.

compound="Cn1ncnc1[C@H]1c2n[nH]c(=O)c3cc(F)cc(c23)N[C@@H]1c1ccc(F)cc1 + CNC(=O)c1ccc(Nc2nc(OC3CCCC3)c3c(-c4ccc5nc(C)oc5c4)c[nH]c3n2)c(OC)c1" assay_endpoint="viability, T/C" scale_unit=% reported=34.7

Here's the next entry for you.
# input Consider the compound CC(=O)O[C@H]1C(=O)[C@@]2(C)[C@H]([C@H](OC(=O)c3ccccc3)[C@]3(O)C[C@H](OC(=O)[C@H](O)[C@@H](NC(=O)c4ccccc4)c4ccccc4)C(C)=C1C3(C)C)[C@]1(OC(C)=O)CO[C@@H]1C[C@@H]2O + CNC(=O)c1ccc(Nc2nc(OC3CCCC3)c3c(-c4ccc5nc(C)oc5c4)c[nH]c3n2)c(OC)c1 tested on 565232-114-T-J1-PDC complex spheroid viability; state its viability, T/C.
# output 37.8

----------
Test system: 565232-114-T-J1-PDC complex spheroid viability
experiment: Anticancer human tumor 565232-114-T-J1-PDC cell line growth inhibition [CLK];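 note: spheroids exposed to compounds for 7 days before readout; 100% = DMSO vehicle wells with luminescence normalized to vehicle control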
measurement parameters: second compound 0.1 µM; first compound 1 µM; hits give low values
Strictly below 50% in viability, T/C: true. Otherwise: false.

compound="COc1ccc([C@@H](O)c2cc(-c3ncnc4cc(N5CCOCC5)ccc34)c(F)cc2Cl)nn1 + CN1CCN(c2cc(C(=O)Nc3cc4cc(-c5cnn(C)c5)ccc4cn3)ccn2)CC1" group_label=false
compound="CCN1CCN(Cc2ccc(Nc3ncc(F)c(-c4cc(F)c5nc(C)n(C(C)C)c5c4)n3)nc2)CC1 + CN1CCN(c2cc(C(=O)Nc3cc4cc(-c5cnn(C)c5)ccc4cn3)ccn2)CC1" group_label=false
compound="COc1ccc([C@@H](O)c2cc(-c3ncnc4cc(N5CCOCC5)ccc34)c(F)cc2Cl)nn1 + CNC(=O)c1ccc(Nc2nc(OC3CCCC3)c3c(-c4ccc5nc(C)oc5c4)c[nH]c3n2)c(OC)c1" group_label=true
compound="CC1(C)CCC(CN2CCN(c3ccc(C(=O)NS(=O)(=O)c4ccc(NCC5CCOCC5)c([N+](=O)[O-])c4)c(Oc4cnc5[nH]ccc5c4)c3)CC2)=C(c2ccc(Cl)cc2)C1 + CN1CCN(c2cc(C(=O)Nc3cc4cc(-c5cnn(C)c5)ccc4cn3)ccn2)CC1" group_label=false
compound="C=CC(=O)N1CCN(c2nc(=O)n(-c3c(C)ccnc3C(C)C)c3nc(-c4c(O)cccc4F)c(F)cc23)C(C)C1 (stereo not given) + CNC(=O)c1ccc(Nc2nc(OC3CCCC3)c3c(-c4ccc5nc(C)oc5c4)c[nH]c3n2)c(OC)c1" group_label=false

# input State whether 50% exceeds viability, T/C recorded for Nc1ccccc1NC(=O)c1ccc(CNC(=O)OCc2cccnc2)cc1 + CN1CCN(c2cc(C(=O)Nc3cc4cc(-c5cnn(C)c5)ccc4cn3)ccn2)CC1 .
# output false

# input State whether 50% exceeds viability, T/C recorded for CCCS(=O)(=O)Nc1ccc(F)c(C(=O)c2c[nH]c3ncc(-c4ccc(Cl)cc4)cc23)c1F + CNC(=O)c1ccc(Nc2nc(OC3CCCC3)c3c(-c4ccc5nc(C)oc5c4)c[nH]c3n2)c(OC)c1 .
# output true

# input State whether 50% exceeds viability, T/C recorded for Nc1ccn(C2OC(CO)C(O)C2(F)F)c(=O)n1 (stereo not given) + CNC(=O)c1ccc(Nc2nc(OC3CCCC3)c3c(-c4ccc5nc(C)oc5c4)c[nH]c3n2)c(OC)c1 .
# output true

# input State whether 50% exceeds viability, T/C recorded for CC(Nc1ccc2c(c1)OCCn1cc(N3C(=O)OCC3C(F)F)nc1-2)C(N)=O (stereo not given) + CNC(=O)c1ccc(Nc2nc(OC3CCCC3)c3c(-c4ccc5nc(C)oc5c4)c[nH]c3n2)c(OC)c1 .
# output true

----------
Tested on: 565232-114-T-J1-PDC complex spheroid viability
experiment: Anticancer human tumor 565232-114-T-J1-PDC cell line growth inhibition [CLK];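 note: spheroids exposed to compounds for 7 days before readout; 100% = DMSO vehicle wells with luminescence normalized to vehicle control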
measurement parameters: second compound 3.16 µM; first compound 3.16 µM; hits give low values
assay endpoint: viability, T/C

Answered examples (4):
molecule="Nc1ccccc1NC(=O)c1ccc(CNC(=O)OCc2cccnc2)cc1 + CN1CCN(c2cc(C(=O)Nc3cc4cc(-c5cnn(C)c5)ccc4cn3)ccn2)CC1" assay_endpoint="viability, T/C" reported=0.19%
molecule="COc1cccc2c1C(=O)c1c(O)c3c(c(O)c1C2=O)CC(O)(C(=O)CO)CC3OC1CC(N)C(O)C(C)O1 (stereo not given) + CNC(=O)c1ccc(Nc2nc(OC3CCCC3)c3c(-c4ccc5nc(C)oc5c4)c[nH]c3n2)c(OC)c1" assay_endpoint="viability, T/C" reported=0.69%
molecule="CC(Nc1ccc2c(c1)OCCn1cc(N3C(=O)OCC3C(F)F)nc1-2)C(N)=O (stereo not given) + CNC(=O)c1ccc(Nc2nc(OC3CCCC3)c3c(-c4ccc5nc(C)oc5c4)c[nH]c3n2)c(OC)c1" assay_endpoint="viability, T/C" reported=6.97%
molecule="O=C(c1cc(Cc2n[nH]c(=O)c3ccccc23)ccc1F)N1CCN(C(=O)C2CC2)CC1 + CN1CCN(c2cc(C(=O)Nc3cc4cc(-c5cnn(C)c5)ccc4cn3)ccn2)CC1" assay_endpoint="viability, T/C" reported=2.21%

Here's the next entry for you.
# input Tell me measured viability, T/C for C=C(F)C(=O)N1CCN(c2nc(OCC3CCCN3C)nc3c2CCN(c2cccc4cccc(Cl)c24)C3)CC1CC#N (stereo not given) + CNC(=O)c1ccc(Nc2nc(OC3CCCC3)c3c(-c4ccc5nc(C)oc5c4)c[nH]c3n2)c(OC)c1 please.
# output 17.4%

----------
Test system: 565232-114-T-J1-PDC complex spheroid viability
experiment: Anticancer human tumor 565232-114-T-J1-PDC cell line growth inhibition [CLK]; active means viability on the fitted dose curve at most 10% of control; inactive means the rest;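 note: spheroids exposed to compounds for 7 days before readout; 100% = DMSO vehicle wells with luminescence normalized to vehicle control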
measurement parameters: second compound 10 µM; first compound 3.16 µM
Select the matching outcome among active, inactive

Reference set (4 entries):
compound="COc1ccc([C@@H](O)c2cc(-c3ncnc4cc(N5CCOCC5)ccc34)c(F)cc2Cl)nn1 + CN1CCN(c2cc(C(=O)Nc3cc4cc(-c5cnn(C)c5)ccc4cn3)ccn2)CC1" group_label=active
compound="CC(CO)NC(=O)c1cc(-c2ccc(Cl)cc2)nn(-c2cnn(C)c2)c1=O (stereo not given) + CN1CCN(c2cc(C(=O)Nc3cc4cc(-c5cnn(C)c5)ccc4cn3)ccn2)CC1" group_label=active
compound="Nc1ccccc1NC(=O)c1ccc(CNC(=O)OCc2cccnc2)cc1 + CNC(=O)c1ccc(Nc2nc(OC3CCCC3)c3c(-c4ccc5nc(C)oc5c4)c[nH]c3n2)c(OC)c1" group_label=active
compound="CC1(C)CCC(CN2CCN(c3ccc(C(=O)NS(=O)(=O)c4ccc(NCC5CCOCC5)c([N+](=O)[O-])c4)c(Oc4cnc5[nH]ccc5c4)c3)CC2)=C(c2ccc(Cl)cc2)C1 + CN1CCN(c2cc(C(=O)Nc3cc4cc(-c5cnn(C)c5)ccc4cn3)ccn2)CC1" group_label=active

Moving on to another compound below.
# input Test call, this compound: O=C(c1cc(Cc2n[nH]c(=O)c3ccccc23)ccc1F)N1CCN(C(=O)C2CC2)CC1 + CNC(=O)c1ccc(Nc2nc(OC3CCCC3)c3c(-c4ccc5nc(C)oc5c4)c[nH]c3n2)c(OC)c1
# output inactive

From: PubChem BioAssay AID2060612
